The measurements presented in this section are drawn from the supplement of paper PMC4862054.

compounds and their reported drug sensitivity score
tested on: CAL-148; assay: drug sensitivity score (DSS), CellTiter-Glo (DSS (AUC-based score)); higher = stronger drug effect (viability inhibition or cytotoxicity); extreme values may be limits of the assay; conditions: incubation time: 72 h
Please state the value as a number alone, without comment.

COc1cc2c(Oc3ccc4[nH]c(C)cc4c3F)ncnc2cc1OCCCN1CCCC1 [Cediranib] | 0

*Q* Answer with reported drug sensitivity score of Oc1ncc(N(CCCl)CCCl)c(O)n1 [Uracil mustard]
*A* 0

*Q* Answer with reported drug sensitivity score of N#Cc1ccc(C(c2ccc(C#N)cc2)n2cncn2)cc1 [Letrozole]
*A* 0

*Q* Answer with reported drug sensitivity score of CC[C@H](C)C(=O)O[C@H]1C[C@H](O)C=C2C=C[C@H](C)[C@H](CC[C@@H](O)C[C@@H](O)CC(=O)O)[C@H]21 [Pravastatin]
*A* 3.75

*Q* Answer with reported drug sensitivity score of COc1cc([C@@H]2c3cc4c(cc3[C@@H](O[C@@H]3O[C@@H]5CO[C@@H](c6cccs6)O[C@H]5[C@H](O)[C@H]3O)[C@H]3COC(=O)[C@H]23)OCO4)cc(OC)c1O [Teniposide]
*A* 15.7

*Q* Answer with reported drug sensitivity score of C=CCc1cccc(/C=N/NC(=O)CN2CCN(Cc3ccccc3)CC2)c1O [PAC-1]
*A* 2.16

*Q* Answer with reported drug sensitivity score of O=C(Cc1ccc(-c2ccc(OCCN3CCOCC3)cc2)cn1)NCc1ccccc1 [KX2-391]
*A* 16.9

*Q* Answer with reported drug sensitivity score of Nc1ncn([C@H]2C[C@H](O)[C@@H](CO)O2)c(=O)n1 [Decitabine]
*A* 0

* * *

tested on: CAL-51; settings: 72 h
compounds and their reported EC50, CellTiter-Blue viability
Record the value in nM, omitting the unit from your answer.

// solved cases for EC50, CellTiter-Blue viability follow
CC[C@@H]1C(=O)N(C)c2cnc(Nc3ccc(C(=O)NC4CCN(C)CC4)cc3OC)nc2N1C1CCCC1 | 12.5
C=CC(=O)Nc1cc2c(Nc3ccc(F)c(Cl)c3)ncnc2cc1OCCCN1CCOCC1 | 4690
COc1cc2nccc(Oc3ccc(NC(=O)Nc4cc(C)on4)c(Cl)c3)c2cc1OC | 7800

*Q* Answer with reported EC50, CellTiter-Blue viability of `O=C(/C=C/c1cccnc1)NCCCCC1CCN(C(=O)c2ccccc2)CC1`
*A* 12.6

* * *

test system: HCC1937; experiment: normalised viability (% of control), CellTiter-Blue; higher = more viable cells (about 100 = DMSO control); conditions: 100 nM; incubation time: 72 h
propertyName: normalised viability (%)
Record the value in %, omitting the unit from your answer.

// solved cases for normalised viability follow
C[C@H]1C[C@@H]2[C@H]([C@@H](O)C[C@@]3(C)[C@H]2CC[C@]3(O)C(=O)CO)[C@@]2(C)C=CC(=O)C=C12 [Methylprednisolone] | 97.7
O=C(O)C1(C(=O)O)CCC1.[NH2-].[NH2-].[Pt+2] [Carboplatin] | 94.5
C1CN1c1nc(N2CC2)nc(N2CC2)n1 [Triethylenemelamine] | 88.5
CCCS(=O)(=O)Nc1ccc(F)c(C(=O)c2c[nH]c3ncc(-c4ccc(Cl)cc4)cc23)c1F [Vemurafenib] | 96.4
Nc1nc(F)nc2c1ncn2[C@@H]1O[C@H](CO)[C@@H](O)[C@@H]1O [Fludarabine] | 110
N#Cc1ccc(C(c2ccc(C#N)cc2)n2cncn2)cc1 [Letrozole] | 97.4

*Q* Answer with reported normalised viability of CC1=C(/C=C/C(C)=C/C=C/C(C)=C/C(=O)O)C(C)(C)CCC1 [Tretinoin]
*A* 98.9
